Where do these numbers come from? They come from patent US20120190703A1.

Listed below: Inhibition (%) values for each entry.
- Test system: H22 tumor-bearing mice
- applied_conditions: high dose × 7 d, intragastric once daily, equal moles: prototype 5.0, tartrate 7.05, maleate 6.60, citrate 7.90 mg/kg
Marks after values point to notes of the source that are not given here.

For the compound COc1ccc2c3c(c4cc(OC)c(OC)cc4c2c1)CN1CCC[C@H]1C3.O=C(O)C(O)C(O)C(=O)O [Tartrate, (+)-13a-(S)-deoxytylophorinine Tartrate] , report Inhibition (%).
80.35** %

For the compound COc1ccc2c3c(c4cc(OC)c(OC)cc4c2c1)CN1CCC[C@H]1C3.O=C(O)/C=C\C(=O)O [Maleate, (+)-13a-(S)-deoxytylophorinine Maleate] , report Inhibition (%).
73.58** %

For the compound COc1ccc2c3c(c4cc(OC)c(OC)cc4c2c1)CN1CCC[C@H]1C3.O=C(O)CC(O)(CC(=O)O)C(=O)O [Citrate, (+)-13a-(S)-deoxytylophorinine Citrate] , report Inhibition (%).
80.44** %

For the compound COc1ccc2c3c(c4cc(OC)c(OC)cc4c2c1)CN1CCC[C@H]1C3 [(+)-13a-(S)-deoxytylophorinine, reference compound] , report Inhibition (%).
74.02** %

====

Listed below: solubility values for each entry.
- test_summary: Solubility in water
- Assay type: physicochemical
- applied_conditions: water
Counter-ions that a name gives are not always drawn.

molecule	solubility
COc1ccc2c3c(c4cc(OC)c(OC)cc4c2c1)CN1CCC[C@H]1C3 [Sulfate, (+)-13a-(S)-deoxytylophorinine Sulfate]	200 mg/mL
COc1ccc2c3c(c4cc(OC)c(OC)cc4c2c1)CN1CCC[C@H]1C3.O=C(O)CC(O)(CC(=O)O)C(=O)O [Citrate, (+)-13a-(S)-deoxytylophorinine Citrate]	33 mg/mL
COc1ccc2c3c(c4cc(OC)c(OC)cc4c2c1)CN1CCC[C@H]1C3.O=C(O)C(O)C(O)C(=O)O [Tartrate, (+)-13a-(S)-deoxytylophorinine Tartrate]	39 mg/mL
COc1ccc2c3c(c4cc(OC)c(OC)cc4c2c1)CN1CCC[C@H]1C3.O=C(O)/C=C\C(=O)O [Maleate, (+)-13a-(S)-deoxytylophorinine Maleate]	44 mg/mL

Now let's try a different one.
For the molecule CC(O)C(=O)O.COc1ccc2c3c(c4cc(OC)c(OC)cc4c2c1)CN1CCC[C@H]1C3 [Lactate, (+)-13a-(S)-deoxytylophorinine Lactate] , report solubility.
120 mg/mL

====

- Test system: H22 tumor-bearing mice
- applied_conditions: low dose × 7 d, intragastric once daily, equal moles: prototype 2.5, tartrate 3.53, maleate 3.30, citrate 3.95 mg/kg
Listed below: Body Weight(g) Initial values for each entry.
Write the answer as a number in g⁻¹, unit excluded.

For the molecule COc1ccc2c3c(c4cc(OC)c(OC)cc4c2c1)CN1CCC[C@H]1C3.O=C(O)C(O)C(O)C(=O)O [Tartrate, (+)-13a-(S)-deoxytylophorinine Tartrate] , report Body Weight(g) Initial.
21.50

====

- Tested on: H22 tumor-bearing mice
- applied_conditions: high dose × 7 d, intragastric once daily, equal moles: prototype 5.0, tartrate 7.05, maleate 6.60, citrate 7.90 mg/kg
measured_endpoint: Body Weight(g) Initial (g⁻¹)
Write the answer as a number in g⁻¹, unit excluded.

Solved cases (3 shown):
molecule	measured_on	Body Weight(g) Initial (g⁻¹)
COc1ccc2c3c(c4cc(OC)c(OC)cc4c2c1)CN1CCC[C@H]1C3 [(+)-13a-(S)-deoxytylophorinine, reference compound]	H22 tumor-bearing mice	23.50
COc1ccc2c3c(c4cc(OC)c(OC)cc4c2c1)CN1CCC[C@H]1C3.O=C(O)C(O)C(O)C(=O)O [Tartrate, (+)-13a-(S)-deoxytylophorinine Tartrate]	H22 tumor-bearing mice	22.00
COc1ccc2c3c(c4cc(OC)c(OC)cc4c2c1)CN1CCC[C@H]1C3.O=C(O)/C=C\C(=O)O [Maleate, (+)-13a-(S)-deoxytylophorinine Maleate]	H22 tumor-bearing mice	21.17

Now let's try a different one.
For the molecule COc1ccc2c3c(c4cc(OC)c(OC)cc4c2c1)CN1CCC[C@H]1C3.O=C(O)CC(O)(CC(=O)O)C(=O)O [Citrate, (+)-13a-(S)-deoxytylophorinine Citrate] , report Body Weight(g) Initial.
22.00
